Assay: Skin biopsy tissue concentration, four 0.7 mm horizontal sections, acetonitrile extraction (Example 1)
Type: in vivo
Details: human, section 3, topical, 8 % sirolimus in the formulation, subject A, section 3, 7 hours after application, 8% sirolimus in capric acid:benzyl alcohol 50:50, read-out: Sirolimus concentration, skin section 3
Experimental: In parallel, skin biopsies were taken from the individuals after 7 hours, the biopsy samples were glued to a glass slide and serially sectioned horizontally into 4 layers each 0.7 mm thick and extracted with acetonitrile.
OBSERVED PROPERTY: concentration at 7 h (ng/g)
A number alone suffices; assume ng/g.

Enquiry: Fill in: concentration at 7 h of CO[C@H]1C[C@@H]2CC[C@@H](C)[C@@](O)(O2)C(=O)C(=O)N2CCCC[C@H]2C(=O)O[C@H]([C@H](C)C[C@@H]2CC[C@@H](O)[C@H](OC)C2)CC(=O)[C@H](C)/C=C(\C)[C@@H](O)[C@@H](OC)C(=O)[C@H](C)C[C@H](C)/C=C/C=C/C=C/1C is ___
Return: 255000

----------
experiment: Skin biopsy tissue concentration, four 0.7 mm horizontal sections, acetonitrile extraction (Example 1); type: in vivo; conditions: human, section 1 (surface, 0-0.7 mm), topical, 8 % sirolimus in the formulation, subject C, section 1 (surface, 0-0.7 mm), 7 hours after application, 8% sirolimus in capric acid:benzyl alcohol 50:50, read-out: Sirolimus concentration, skin section 1
OBSERVED PROPERTY: concentration at 7 h (ng/g)
A number alone suffices; assume ng/g.

Enquiry: Fill in: concentration at 7 h of CO[C@H]1C[C@@H]2CC[C@@H](C)[C@@](O)(O2)C(=O)C(=O)N2CCCC[C@H]2C(=O)O[C@H]([C@H](C)C[C@@H]2CC[C@@H](O)[C@H](OC)C2)CC(=O)[C@H](C)/C=C(\C)[C@@H](O)[C@@H](OC)C(=O)[C@H](C)C[C@H](C)/C=C/C=C/C=C/1C [sirolimus] is ___
Return: 301000

----------
test: Skin biopsy tissue concentration, four 0.7 mm horizontal sections, acetonitrile extraction (Example 1); assay type: in vivo; conditions: human, section 2 (0.7-1.4 mm), topical, 8 % sirolimus in the formulation, subject B, section 2 (0.7-1.4 mm), 7 hours after application, 8% sirolimus in capric acid:benzyl alcohol 50:50, read-out: Sirolimus concentration, skin section 2
OBSERVED PROPERTY: concentration at 7 h (ng/g)
A number alone suffices; assume ng/g.

Enquiry: Fill in: concentration at 7 h of CO[C@H]1C[C@@H]2CC[C@@H](C)[C@@](O)(O2)C(=O)C(=O)N2CCCC[C@H]2C(=O)O[C@H]([C@H](C)C[C@@H]2CC[C@@H](O)[C@H](OC)C2)CC(=O)[C@H](C)/C=C(\C)[C@@H](O)[C@@H](OC)C(=O)[C@H](C)C[C@H](C)/C=C/C=C/C=C/1C is ___
Return: 108000

----------
Assay: Skin biopsy tissue concentration, four 0.7 mm horizontal sections, acetonitrile extraction (Example 1)
Type: in vivo
Details: human, section 4, topical, 8 % sirolimus in the formulation, subject B, section 4, 7 hours after application, 8% sirolimus in capric acid:benzyl alcohol 50:50, read-out: Sirolimus concentration, skin section 4
Procedure: In parallel, skin biopsies were taken from the individuals after 7 hours, the biopsy samples were glued to a glass slide and serially sectioned horizontally into 4 layers each 0.7 mm thick and extracted with acetonitrile.
OBSERVED PROPERTY: concentration at 7 h (ng/g)
A number alone suffices; assume ng/g.

Enquiry: Fill in: concentration at 7 h of CO[C@H]1C[C@@H]2CC[C@@H](C)[C@@](O)(O2)C(=O)C(=O)N2CCCC[C@H]2C(=O)O[C@H]([C@H](C)C[C@@H]2CC[C@@H](O)[C@H](OC)C2)CC(=O)[C@H](C)/C=C(\C)[C@@H](O)[C@@H](OC)C(=O)[C@H](C)C[C@H](C)/C=C/C=C/C=C/1C is ___
Return: 214000

Where do the numbers come from? From patent US20050239724A1.
